- procedureSummary: Anticancer human tumor 997537-175-T-J1-PDC patient-derived colon adenocarcinoma cell line growth inhibition [POLQ];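 further: luminescence signal used as a surrogate for viable cells; spheroids exposed to drugs for seven days before readout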
- details: 997537-175-T-J1-PDC complex spheroid viability, combination with POLQ inhibitors; second compound 0.316 µM; first compound 1 µM; stronger effect = lower value
metricName: viability, T/C (%)
Provide only the numeric value, understood in %.

Some entries whose results are on file:
1. CCc1cc2c(N3CCc4c(cc(Cn5ccnc5)cc4-c4cn(C)nc4C(F)(F)F)C3=O)ccnc2c(OC)n1 + Nc1ccc(C#CCN(C(=O)Cc2ncc(C(F)(F)F)cc2C(F)(F)F)c2ccc(F)cc2)nn1 ... 94.6
2. C=CCn1c(=O)c2cnc(Nc3ccc(N4CCN(C)CC4)cc3)nc2n1-c1cccc(C(C)(C)O)n1 + Nc1ccc(C#CCN(C(=O)Cc2ncc(C(F)(F)F)cc2C(F)(F)F)c2ccc(F)cc2)nn1 ... 55.1
3. COc1ccc([C@@H](O)c2cc(-c3ncnc4cc(N5CCOCC5)ccc34)c(F)cc2Cl)nn1 + Nc1ccc(C#CCN(C(=O)Cc2ncc(C(F)(F)F)cc2C(F)(F)F)c2ccc(F)cc2)nn1 ... 99.1
4. Nc1ccn(C2OC(CO)C(O)C2(F)F)c(=O)n1 (stereo not given) + Nc1ccc(C#CCN(C(=O)Cc2ncc(C(F)(F)F)cc2C(F)(F)F)c2ccc(F)cc2)nn1 ... 92.9

Attention now turns to another entry.
Record summary for CNCc1ccc(-c2[nH]c3cc(F)cc4c3c2CCNC4=O)cc1 + Cc1cccc(N(C)C(=O)C2C(O)CCN2c2nc(C)cc(C(F)(F)F)c2C#N)c1 : reported viability, T/C = 102
